The reported numbers originate from ChEMBL document CHEMBL3745665.

experiment: Plasma clearance in dog at 0.5 mg/kg, iv or 2 mg/kg, po; assay type: ADME, organism-based, Canis lupus familiaris
Some molecules, each annotated with its measured clearance.

{"INPUT_SMILES": "CCc1nnc([C@H]2[C@@H]3CN(C(=O)c4ccc(C[C@@H]5CC[C@H]([C@H](O)c6ccccc6)N5)cc4)C[C@@H]32)o1", "UNITS_LABEL": "mL/min/kg", "clearance": 36}
{"INPUT_SMILES": "O=C(c1ccc(C[C@@H]2CC[C@H]([C@H](O)c3ccccc3)N2)cc1)N1CCC2(CCOC2=O)CC1", "UNITS_LABEL": "mL/min/kg", "clearance": 31}
{"INPUT_SMILES": "Cn1nnc([C@H]2[C@@H]3CN(C(=O)c4ccc(C[C@@H]5CC[C@H]([C@H](O)c6ccccc6)N5)cc4)C[C@@H]32)n1", "UNITS_LABEL": "mL/min/kg", "clearance": 19}

###

assay: Oral bioavailability rhesus monkey; format: ADME, organism-based, Macaca mulatta; settings: in vivo
VALUE_TYPE: bioavailability (%)

{"INPUT_SMILES": "CCc1nnc([C@H]2[C@@H]3CN(C(=O)c4ccc(C[C@@H]5CC[C@H]([C@H](O)c6ccccc6)N5)cc4)C[C@@H]32)o1", "OBSERVED_MEASUREMENT": 5}

###

target: Beta-2 adrenergic receptor (Homo sapiens, UniProt P07550); test: Displacement of [125I]CYP from human beta-2 adrenergic receptor expressed in CHO cell membrane after 1 hr by scintillation counting method
Sequence (P07550 whole entry): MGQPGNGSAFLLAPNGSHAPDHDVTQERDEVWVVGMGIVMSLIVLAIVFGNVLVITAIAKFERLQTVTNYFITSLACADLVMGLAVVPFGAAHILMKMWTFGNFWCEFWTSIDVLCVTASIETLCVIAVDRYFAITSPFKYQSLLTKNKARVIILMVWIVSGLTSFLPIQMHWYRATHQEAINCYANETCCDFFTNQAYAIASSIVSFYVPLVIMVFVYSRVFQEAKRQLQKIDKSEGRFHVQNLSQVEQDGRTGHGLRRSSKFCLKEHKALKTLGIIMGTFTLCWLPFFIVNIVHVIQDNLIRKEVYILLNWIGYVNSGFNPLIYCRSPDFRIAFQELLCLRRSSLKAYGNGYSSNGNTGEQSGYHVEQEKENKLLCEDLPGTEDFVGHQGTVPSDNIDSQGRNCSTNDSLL
pIC50: −log10 of the molar value.
VALUE_TYPE: pIC50

{"INPUT_SMILES": "Cn1nnc([C@H]2[C@@H]3CN(C(=O)c4ccc(C[C@@H]5CC[C@H]([C@H](O)c6ccccc6)N5)cc4)C[C@@H]32)n1", "OBSERVED_MEASUREMENT": "< 4.70"}
{"INPUT_SMILES": "CCc1nnc([C@H]2[C@@H]3CN(C(=O)c4ccc(C[C@@H]5CC[C@H]([C@H](O)c6ccccc6)N5)cc4)C[C@@H]32)o1", "OBSERVED_MEASUREMENT": "< 4.70"}
{"INPUT_SMILES": "CCOC(=O)[C@H]1[C@@H]2CN(C(=O)c3ccc(C[C@@H]4CC[C@H]([C@H](O)c5ccccc5)N4)cc3)C[C@@H]21", "OBSERVED_MEASUREMENT": 4.87}
{"INPUT_SMILES": "CCOC(=O)[C@@H]1[C@@H]2CN(C(=O)c3ccc(C[C@@H]4CC[C@H]([C@H](O)c5ccccc5)N4)cc3)C[C@@H]21", "OBSERVED_MEASUREMENT": "< 4.70"}
{"INPUT_SMILES": "O=C(c1ccc(C[C@@H]2CC[C@H]([C@H](O)c3ccccc3)N2)cc1)N1C[C@@H]2[C@H](C1)[C@H]2c1nnco1", "OBSERVED_MEASUREMENT": "< 4.70"}
{"INPUT_SMILES": "Nc1nc(CNC(=O)c2ccc(C[C@@H]3CC[C@H]([C@H](O)c4ccccc4)N3)cc2)cs1", "OBSERVED_MEASUREMENT": 5.28}

###

molecular target: Beta-3 adrenergic receptor (Homo sapiens); assay: Agonist activity at human beta-3 adrenergic receptor expressed in CHO cells assessed as increase in cAMP level after 30 mins by LANCE TR-FRET assay relative to R-(-)-isoproterenol; type: functional, cell-based
Sequence (P13945 whole entry, looked up): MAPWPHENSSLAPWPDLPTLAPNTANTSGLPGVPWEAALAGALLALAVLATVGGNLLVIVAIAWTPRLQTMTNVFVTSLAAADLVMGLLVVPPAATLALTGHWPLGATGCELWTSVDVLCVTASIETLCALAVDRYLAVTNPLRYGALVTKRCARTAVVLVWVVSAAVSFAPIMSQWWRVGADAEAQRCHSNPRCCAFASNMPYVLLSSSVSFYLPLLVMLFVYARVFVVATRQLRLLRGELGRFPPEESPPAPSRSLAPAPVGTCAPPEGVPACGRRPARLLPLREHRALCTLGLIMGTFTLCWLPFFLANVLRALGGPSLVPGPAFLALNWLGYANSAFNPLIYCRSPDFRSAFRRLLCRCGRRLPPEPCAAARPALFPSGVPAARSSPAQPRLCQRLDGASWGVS
VALUE_TYPE: %max (%)

{"COMPOUND": "CCOC(=O)[C@@H]1[C@@H]2CN(C(=O)c3ccc(C[C@@H]4CC[C@H]([C@H](O)c5ccccc5)N4)cc3)C[C@@H]21", "OBSERVED_MEASUREMENT": 97}
{"COMPOUND": "CCOC(=O)C1CCN(C(=O)c2ccc(C[C@@H]3CC[C@H]([C@H](O)c4ccccc4)N3)cc2)CC1", "OBSERVED_MEASUREMENT": 95}
{"COMPOUND": "O=C(c1ccc(C[C@@H]2CC[C@H]([C@H](O)c3ccccc3)N2)cc1)N1C[C@@H]2[C@H](C1)[C@H]2c1nnco1", "OBSERVED_MEASUREMENT": 101}
{"COMPOUND": "Cn1nnc([C@H]2[C@@H]3CN(C(=O)c4ccc(C[C@@H]5CC[C@H]([C@H](O)c6ccccc6)N5)cc4)C[C@@H]32)n1", "OBSERVED_MEASUREMENT": 97}
{"COMPOUND": "O=C(Nc1ccc(C[C@@H]2CC[C@H]([C@H](O)c3cccnc3)N2)cc1)C1CCc2ccnn21 (some centres not stated)", "OBSERVED_MEASUREMENT": 84}
{"COMPOUND": "Nc1nc(CNC(=O)c2ccc(C[C@@H]3CC[C@H]([C@H](O)c4ccccc4)N3)cc2)cs1", "OBSERVED_MEASUREMENT": 84}
{"COMPOUND": "CCc1nnc([C@H]2[C@@H]3CN(C(=O)c4ccc(C[C@@H]5CC[C@H]([C@H](O)c6ccccc6)N5)cc4)C[C@@H]32)o1", "OBSERVED_MEASUREMENT": 97}
